B1: WEE1 (parent)
chain: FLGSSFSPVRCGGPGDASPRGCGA

Variants of: B1
measurement.notes: protein stability index of a GFP-peptide fusion (GPS, HEK-293T) (PSI 1-6); higher = more stable;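 note: lentivirally expressed fusions sorted by FACS into six bins by GFP to DsRed ratio, PSI derived from sequencing read proportions per bin multiplied by bin number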
measurement.parameters: c terminus: a fixed tail appended
readout: protein stability index
Numbers only.

{"columns": ["mutation.string", "quantitative.readout"],
 "data": [
  ["D16V", 1.91],
  ["G3Q", 2.33],
  ["R20W", 2.19],
  ["D16E", 1.93],
  ["P8V", 1.97]
]}

Could you tell me protein stability index for each of these variants? They are listed below.
1. V9D
2. D16T
3. G23N
4. G3C

[2.58, 1.57, 1.66, 1.91]

# batch: return protein stability index for each of the 8 variants below
1. F1Y
2. R10C
3. C11Y
4. C22F
5. P14R
6. F6G
7. V9L
8. P19D

[1.87, 1.73, 2.01, 2.48, 2.35, 3.36, 1.1, 2]
